# test-description: Stabilization of Pu27 oligomer by inducing G-quadruplex formation assessed as inhibition of hybridization with Pu27rev by PCR stop assay
The source made the active and inactive calls. No cut-off for these calls is given here.
metric-name: Activity

>>> result("CN(C)CCCNc1c2ccccc2nc2c1[nH]c1ccccc12")
"Active"
>>> result("CN(C)CCNc1c2ccccc2nc2c1[nH]c1ccccc12")
"Active"
>>> result("CN(C)CCCNc1c2ccccc2nc2c1oc1ccccc12")
"Active"
